- ASSAY_TARGET: COX-I (Homo sapiens)
- Construct: Fresh blood was collected by syringe without anticoagulants from volunteers with consent; from tissue; host or cells: fresh human whole blood from volunteers, no anticoagulant, allowed to clot
- Sequence (P23219 24-599): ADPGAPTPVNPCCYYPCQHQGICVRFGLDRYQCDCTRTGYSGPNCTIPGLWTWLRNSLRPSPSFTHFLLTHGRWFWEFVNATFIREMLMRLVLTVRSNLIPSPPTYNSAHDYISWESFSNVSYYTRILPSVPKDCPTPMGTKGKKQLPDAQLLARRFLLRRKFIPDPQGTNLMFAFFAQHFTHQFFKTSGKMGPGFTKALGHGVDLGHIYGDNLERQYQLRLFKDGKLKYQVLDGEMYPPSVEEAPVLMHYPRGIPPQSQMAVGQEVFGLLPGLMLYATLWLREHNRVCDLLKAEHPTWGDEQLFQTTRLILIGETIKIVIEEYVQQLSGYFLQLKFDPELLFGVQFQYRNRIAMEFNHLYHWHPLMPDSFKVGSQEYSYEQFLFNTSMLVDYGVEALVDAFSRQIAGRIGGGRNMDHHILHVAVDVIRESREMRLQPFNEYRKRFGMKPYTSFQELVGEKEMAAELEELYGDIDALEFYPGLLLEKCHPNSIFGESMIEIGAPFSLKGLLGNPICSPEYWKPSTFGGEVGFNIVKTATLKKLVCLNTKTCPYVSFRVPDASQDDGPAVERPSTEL
- PROCEDURE_TEXT: Whole blood assay for COX-I (TXB2 production)
- Type: cell-based
- ASSAY_CONTEXT: human whole blood, 1 hr at 37 C, TXB2 production; read-out: COX-I IC50
- Description: Fresh blood was collected by syringe without anticoagulants from volunteers with consent. The subjects had no apparent inflammatory conditions and had not taken any medication for at least 7 days prior to blood collection. […] For a test compound, the results were expressed as percent inhibition of TXB2 production relative to control incubations containing DMSO vehicle. […] IC50 value was calculated by least squares method.
pIC50: −log10 of the molar value.
OBSERVED_PROPERTY: pIC50

{"STRUCTURE_STRING": "COc1ccc(-c2nc(SC)nn2-c2ccc(OC)cc2)cc1", "pIC50": "> 8.00"}

molecule "C#CCOc1nc(-c2ccc(OC)cc2)n(-c2ccc(OC)cc2)n1" , pIC50 observed: > 8.00

Looking up "COc1ccc(-c2nc(OCC(F)(F)F)nn2-c2ccc(OC)nc2)cc1" , I found its pIC50 recorded as > 8.00
